Taken from patent US20230192890A1.

absorbance 490 nm/630 nm reference
ASSAYED SYSTEM: T1, Ala mutant SEQ ID NO: 36 (human)
T1 sequence (peptide): EENMDDQWMADEMEIGY
ASSAY DETAILS: ELISA, peptide on plate (10 ug/mL)
Quick note: give the figure in OD, leave out the unit.

The examples below pair each entry with its known result.
BINDER	absorbance 490 nm/630 nm / OD
G6 (antibody, IgG1, V domains shown) VH: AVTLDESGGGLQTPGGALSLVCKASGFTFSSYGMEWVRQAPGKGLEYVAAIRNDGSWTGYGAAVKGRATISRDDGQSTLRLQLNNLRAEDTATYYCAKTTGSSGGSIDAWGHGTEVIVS VL: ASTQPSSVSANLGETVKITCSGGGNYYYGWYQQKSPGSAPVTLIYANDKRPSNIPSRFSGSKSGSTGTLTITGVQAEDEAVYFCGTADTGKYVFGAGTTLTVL	1.85
G9 (antibody, IgG1, V domains shown) VH: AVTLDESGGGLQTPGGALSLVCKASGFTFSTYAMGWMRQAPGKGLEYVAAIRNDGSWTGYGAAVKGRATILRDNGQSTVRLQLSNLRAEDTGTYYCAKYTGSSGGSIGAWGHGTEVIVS VL: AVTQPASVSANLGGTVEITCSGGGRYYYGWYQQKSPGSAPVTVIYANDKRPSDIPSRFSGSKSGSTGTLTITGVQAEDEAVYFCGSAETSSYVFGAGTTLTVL	1.87

Query: Quick one: absorbance 490 nm/630 nm for E9 (antibody, IgG1, V domains shown) VH: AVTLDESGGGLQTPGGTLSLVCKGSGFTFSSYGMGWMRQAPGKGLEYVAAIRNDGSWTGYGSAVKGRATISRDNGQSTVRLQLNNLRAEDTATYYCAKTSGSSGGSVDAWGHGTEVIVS VL: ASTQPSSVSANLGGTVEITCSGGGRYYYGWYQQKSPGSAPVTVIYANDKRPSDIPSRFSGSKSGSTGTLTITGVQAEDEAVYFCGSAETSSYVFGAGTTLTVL ?
Reply: 1.9
